Data origin: patent US20020061840A1

- Tgt: Aminopeptidase N (Sus scrofa, UniProt P15145)
- Construct: Aminopeptidase N purified from pig's kidney; purchased Böehringer Mannheim (Meylan, France); host or cells: pig's kidney
- Sequence (P15145 whole entry): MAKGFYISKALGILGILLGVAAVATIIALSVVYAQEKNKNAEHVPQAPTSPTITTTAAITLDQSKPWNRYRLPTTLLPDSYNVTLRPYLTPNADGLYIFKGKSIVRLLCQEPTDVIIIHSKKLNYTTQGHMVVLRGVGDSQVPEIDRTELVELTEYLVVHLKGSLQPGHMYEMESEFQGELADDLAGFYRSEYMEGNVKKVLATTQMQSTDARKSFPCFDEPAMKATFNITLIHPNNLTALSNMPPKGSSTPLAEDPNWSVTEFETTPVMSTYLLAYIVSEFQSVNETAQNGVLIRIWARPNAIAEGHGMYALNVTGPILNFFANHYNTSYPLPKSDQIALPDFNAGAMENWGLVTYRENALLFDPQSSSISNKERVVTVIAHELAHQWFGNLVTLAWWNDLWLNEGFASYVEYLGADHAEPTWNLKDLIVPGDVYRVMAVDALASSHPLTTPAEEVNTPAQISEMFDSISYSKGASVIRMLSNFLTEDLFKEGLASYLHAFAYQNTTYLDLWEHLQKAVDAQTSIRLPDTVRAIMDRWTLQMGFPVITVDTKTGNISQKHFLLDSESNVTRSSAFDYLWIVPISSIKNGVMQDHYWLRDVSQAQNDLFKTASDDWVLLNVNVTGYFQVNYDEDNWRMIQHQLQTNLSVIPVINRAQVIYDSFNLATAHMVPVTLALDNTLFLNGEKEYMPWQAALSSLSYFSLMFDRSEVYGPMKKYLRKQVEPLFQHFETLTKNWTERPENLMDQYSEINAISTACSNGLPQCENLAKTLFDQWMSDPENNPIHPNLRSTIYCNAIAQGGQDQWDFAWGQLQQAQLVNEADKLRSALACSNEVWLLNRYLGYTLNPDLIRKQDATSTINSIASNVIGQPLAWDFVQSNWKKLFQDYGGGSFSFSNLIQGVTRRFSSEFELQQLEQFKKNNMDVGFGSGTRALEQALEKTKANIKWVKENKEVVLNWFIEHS
- Method Description: In vitro inhibiting power on aminopeptidase N (Ala-Na substrate)
- Assay type: biochemical
- Protocol Conditions: APN purified from pig's kidney, 200 μM Ala-Na, 37° C., Tris HCl pH 7.4
- Experimental: b)) In vitro study of the inhibiting power of the synthesised compounds on aminopeptidase N. 1°) Source of the Enzyme. Aminopeptidase N purified from pig's kidney is marketed by Böehringer Mannheim (Meylan, France). […]
Assign Ki to each entry below.

Please supply Ki for each of the following items, keeping them in order.
1. CC[C@H](C)[C@H](NC(=O)[C@@H](S)[C@H](N)CCC(=O)O)C(=O)N1CC[C@@H](C(=O)O)[C@H]1C(=O)O [Example 3A]
2. CCC(C)C(NC(=O)C(S)C(N)CCP(=O)(O)O)C(=O)NC(CCC(=O)O)C(=O)O (single isomer, unassigned) [Example 4A]

### Response
1. > 5 µM
2. > 5 µM

Ki measured on CCC(C)C(NC(=O)C(S)C(N)CCS(=O)(=O)O)C(=O)NC(CCC(=O)O)C(N)=O (single isomer, unassigned) [Example 8B] = > 50 µM

---

- Tgt: Aminopeptidase N (Sus scrofa, UniProt P15145)
- Construct: Aminopeptidase N purified from pig's kidney; purchased Böehringer Mannheim (Meylan, France); host or cells: pig's kidney
- Method Description: In vitro inhibiting power on aminopeptidase N (Ala-Na substrate)
- Assay type: biochemical
- Protocol Conditions: APN purified from pig's kidney, 200 μM Ala-Na, 37° C., Tris HCl pH 7.4
Property Name: Ki

Worked cases, Ki given:
1. CCC(C)C(NC(=O)C(S)C(N)CCP(=O)(O)O)C(=O)NC(CCC(=O)O)C(=O)O (single isomer, unassigned) [Example 4B]	> 5 µM
2. CCC(C)C(NC(=O)C(S)C(N)CCS(=O)(=O)O)C(=O)NC(CCC(=O)O)C(N)=O (single isomer, unassigned) [Example 8A]	> 50 µM

Ki measured on CC[C@H](C)[C@H](NC(=O)[C@H](S)[C@H](N)CCC(=O)O)C(=O)N1CC[C@@H](C(=O)O)[C@H]1C(=O)O [Example 3B] = > 5 µM
